Give inhibition at 100 µM for every item shown.
Target: YTHDF2 (residues 383–553) (Homo sapiens)
Construct: A YTHDF2 YTH domain construct (residues 383–553) was subcloned to a pOPIN plasmid; made in house; host or cells: Escherichia coli BL21(DE3)
Assay: Fluorescence polarization (FP) assay, YTHDF2–m6A RNA interaction
Format: binding
Details: 100 μM compound; YTHDF2 (residues 383–553, 20 nM), FAM-labeled m6A RNA probe 5 nM; average ± SD
Please state the figure in %; there is no need to write the unit.

Can you look up inhibition at 100 µM on YTHDF2 (residues 383–553) (Homo sapiens) for "N#Cc1ccc(-n2cc(C(=O)c3ccccc3O)cn2)cc1" ?
44.5

Moving on to "O=C(c1cnn(-c2ccc(OC(F)(F)F)cc2)c1)c1ccccc1O"
6.9

Moving on to "O=C(c1cnn(-c2ccc(Br)cc2)c1)c1ccccc1O"
42.2

Moving on to N#C/C(=C\c1ccc(-c2cccc(O)c2)s1)C(N)=O [DC-Y13–27, reference compound]
14.2

Moving on to "O=C(c1cnn(-c2ccccc2Cl)c1)c1ccccc1O"
0.8

Moving on to "Cc1ccc(O)c(C(=O)c2cnn(-c3ccc(C(=O)O)cc3)c2)c1"
20.9

Moving on to "COc1ccccc1-n1cc(C(=O)c2ccccc2O)cn1"
5.4

Moving on to "O=C(c1cnn(-c2ccc(C(F)(F)F)cc2)c1)c1ccccc1O"
17.5

Moving on to "COc1ccc(-n2cc(C(=O)c3ccccc3O)cn2)cc1"
-4.8

Moving on to "O=C(c1cnn(-c2ccccc2C(=O)O)c1)c1ccccc1O"
22.1

----------
Target: YTHDF2 (Homo sapiens, UniProt Q9Y5A9)
Construct: A YTHDF2 YTH domain construct (residues 383–553) was subcloned to a pOPIN plasmid; made in house; host or cells: Escherichia coli BL21(DE3)
Sequence (Q9Y5A9 383-553): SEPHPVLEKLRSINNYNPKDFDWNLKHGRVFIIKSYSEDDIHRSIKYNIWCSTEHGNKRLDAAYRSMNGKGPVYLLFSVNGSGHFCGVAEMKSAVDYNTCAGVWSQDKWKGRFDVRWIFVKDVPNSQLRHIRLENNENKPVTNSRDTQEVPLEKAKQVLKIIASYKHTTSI
Experiment: nanoDSF thermal shift assay
Format: binding
Settings: 25 μM compound
QUANTITY KIND: ΔTm at 25 µM (°C)
Please state the figure in °C; there is no need to write the unit.

Return reported ΔTm at 25 µM; argument: O=C(O)c1ccc(-n2cc(C(=O)c3ccc(Br)cc3O)cn2)cc1 [CK-70]
2.42

Moving on to CC(C)c1ccc(O)c(C(=O)c2cnn(-c3ccc(C(=O)O)cc3)c2)c1 [CK-55]
1.48

Moving on to O=C(O)c1ccc(-n2cc(C(=O)c3cc([N+](=O)[O-])ccc3O)cn2)cc1 [CK-62]
0.48

Moving on to O=C(O)c1ccc(-n2cc(C(=O)c3cc(Cl)ccc3O)cn2)cc1 [CK-67]
2.27

Moving on to O=C(O)c1ccc(-n2cc(C(=O)c3cc(Cl)cc(Cl)c3O)cn2)cc1 [CK-61]
3.21

----------
Test: MTT cytotoxicity assay, HCT116
Format: cell-based
Conditions: human, HCT116 cells, triplicates, read-out: Cytotoxicity against cancer cells (IC50), HCT116
Note to self: IC50 at 72 h under 30 µM means Fulfilled, ties and anything higher get Not fulfilled.

I wonder whether "Cc1ccc(C(=O)c2cnn(-c3ccc(C(=O)O)cc3)c2)c(O)c1" has IC50 at 72 h below 30 µM. Can you tell?
Not fulfilled

Moving on to "O=C(O)c1ccc(-n2cc(C(=O)c3ccccc3O)cn2)cc1"
Not fulfilled

Moving on to "COc1ccc(-n2cc(C(=O)c3ccccc3O)cn2)cn1"
Not fulfilled

Moving on to "O=C(O)c1ccc(-n2cc(C(=O)c3cc(Br)ccc3O)cn2)cc1"
Fulfilled

Moving on to "O=C(c1cnn(-c2ccc(C(F)(F)F)cc2)c1)c1ccccc1O"
Not fulfilled

Moving on to "CC(C)c1ccc(O)c(C(=O)c2cnn(-c3ccc(C(=O)O)cc3)c2)c1"
Not fulfilled

Moving on to "O=C(O)c1ccc(-n2cc(C(=O)c3cccc(Cl)c3O)cn2)cc1"
Fulfilled

Moving on to "O=C(O)c1ccc(-n2cc(C(=O)c3ccc(F)cc3O)cn2)cc1"
Not fulfilled

Moving on to "Cc1cc(O)c(C(=O)c2cnn(-c3ccc(C(=O)O)cc3)c2)cc1Cl"
Not fulfilled

Moving on to "NS(=O)(=O)c1ccc(-n2cc(C(=O)c3ccccc3O)cn2)cc1"
Fulfilled

Moving on to "Cc1ccc(-n2cc(C(=O)c3ccccc3O)cn2)cc1"
Fulfilled

Moving on to "COc1ccc(-n2cc(C(=O)c3ccccc3O)cn2)cc1"
Fulfilled

Moving on to "CCc1ccc(O)c(C(=O)c2cnn(-c3ccc(C(=O)O)cc3)c2)c1"
Not fulfilled

Moving on to "CS(=O)(=O)c1ccc(-n2cc(C(=O)c3ccccc3O)cn2)cc1"
Not fulfilled

Moving on to "O=C(O)c1ccc(-n2cc(C(=O)c3cc(Cl)ccc3O)cn2)cc1"
Not fulfilled

Moving on to "O=C(c1cnn(-c2ccc(Br)cc2)c1)c1ccccc1O"
Not fulfilled

Moving on to "O=C(O)c1cccc(-n2cc(C(=O)c3ccccc3O)cn2)c1"
Fulfilled

Moving on to "COc1ccc(O)c(C(=O)c2cnn(-c3ccc(C(=O)O)cc3)c2)c1"
Not fulfilled

Moving on to "COc1ccccc1-n1cc(C(=O)c2ccccc2O)cn1"
Not fulfilled

Moving on to "O=C(c1cnn(-c2ccccc2Cl)c1)c1ccccc1O"
Fulfilled
